Here, each record is paired with measured z-score data.
- protocolText: budding yeast growth changes without added modifier – OD600, strain BY4716, 24 h, basal condition, primary screen (AID 1173)
- conditionDetails: S. cerevisiae BY4716 growth, OD600, 24 h; higher = more signal, called active from +8 up or from −8 down
// print number alone

Recorded results for 2 compounds are shown here.
compound	z-score
CCCCN1CC=CC23O[C@@H]4/C=C\CCCOC(=O)C4[C@H]2C(=O)N(C(C)CO)[C@@H]3C1=O (some centres undefined)	-0.138
[N-]=[N+]=NCc1ccccc1C[C@@]1(C(=O)NCc2ccccc2)N=C(c2ccc(OCCCO)cc2)O[C@@H]1c1ccccc1CN=[N+]=[N-]	0.548

QUERY: Would you kindly share the measured z-score for O=C1c2ccccc2[C@](Cc2ccccc2I)(C(=O)O)[C@H](c2ccc(CO)cc2)N1Cc1ccccc1C(F)(F)F ?
RESULT: -0.874

QUERY: Would you kindly share the measured z-score for COc1ccc([Si](C)(C)[C@@H]2[C@@H](CCO)O[C@]3(C(=O)N(Cc4ccccc4)c4ccc(N(C=O)c5ccccc5)cc43)[C@H]2C)cc1 ?
RESULT: 1.59

QUERY: Would you kindly share the measured z-score for COc1cc(CO)cc(I)c1O[C@H]1C=C(C(=O)NCCO)C[C@@H](N(CCc2cccc(F)c2)C(=O)CCC2CCCC2)[C@@H]1O ?
RESULT: -9.37

QUERY: Would you kindly share the measured z-score for COCCCNC(=O)[C@@]1(Cc2ccccc2I)c2ccccc2C(=O)N(Cc2ccccc2)[C@H]1c1ccc(CO)cc1 ?
RESULT: 0.346

QUERY: Would you kindly share the measured z-score for C=CCC(OC(C)=O)[C@@H]1[C@@H](N(Cc2cc3ccccc3o2)C(=O)c2cccc3ccccc23)c2cc(OCCCO)ccc2N1C(=O)Cc1ccc2ccccc2c1 (some centres undefined) ?
RESULT: 0.272

QUERY: Would you kindly share the measured z-score for COCCOC(=O)N1C(=O)[C@@]2(c3cc(C#Cc4ccc(OC)cc4)ccc31)[C@H](C(N)=O)[C@H]1C(=O)O[C@H](c3ccccc3)[C@H](c3ccccc3)N1[C@@H]2c1ccc(O)cc1 ?
RESULT: -0.823

QUERY: Would you kindly share the measured z-score for C=CCC(OC(C)=O)[C@@H]1[C@@H](N(Cc2cc3ccccc3o2)C(=O)c2ccc(-c3ccccc3)cc2)c2cc(OCCCO)ccc2N1C(=O)Cc1ccc2ccccc2c1 (some centres undefined) ?
RESULT: 0.692

QUERY: Would you kindly share the measured z-score for CO[C@H]1O[C@H](CO)[C@@H](OC(=O)Nc2ccc3c(c2)OCO3)[C@H](OC(=O)Nc2ccc3c(c2)OCO3)[C@H]1OC(=O)Nc1ccc2c(c1)OCO2 ?
RESULT: 1.66

QUERY: Would you kindly share the measured z-score for CCOC1=C2C(c3ccc(C)cc3)N(S(=O)(=O)c3ccc(C)cc3)CC2n2c(=O)n(-c3ccccc3)c(=O)n2C1 (centres undefined) ?
RESULT: 1.21

QUERY: Would you kindly share the measured z-score for O=c1cccc(-c2ccccc2)o1 ?
RESULT: -5.07

QUERY: Would you kindly share the measured z-score for C=C(CCCC)/C(=C/C[C@H](OC(C)=O)c1ccc(CO)o1)c1cc(C(=O)OC)ccc1OC ?
RESULT: -0.31

QUERY: Would you kindly share the measured z-score for C=CCC(OC(C)=O)[C@@H]1[C@@H](N(Cc2ccc(-c3cccc(C(F)(F)F)c3)o2)C(=O)c2ccc(C)cc2)c2cc(OCCCO)ccc2N1C(=O)c1ccc2ccccc2n1 (some centres undefined) ?
RESULT: -0.304

----------
- tgt: NADPH oxidase 2 (Homo sapiens) (UniProt P04839)
- Sequence (P04839 whole entry, looked up): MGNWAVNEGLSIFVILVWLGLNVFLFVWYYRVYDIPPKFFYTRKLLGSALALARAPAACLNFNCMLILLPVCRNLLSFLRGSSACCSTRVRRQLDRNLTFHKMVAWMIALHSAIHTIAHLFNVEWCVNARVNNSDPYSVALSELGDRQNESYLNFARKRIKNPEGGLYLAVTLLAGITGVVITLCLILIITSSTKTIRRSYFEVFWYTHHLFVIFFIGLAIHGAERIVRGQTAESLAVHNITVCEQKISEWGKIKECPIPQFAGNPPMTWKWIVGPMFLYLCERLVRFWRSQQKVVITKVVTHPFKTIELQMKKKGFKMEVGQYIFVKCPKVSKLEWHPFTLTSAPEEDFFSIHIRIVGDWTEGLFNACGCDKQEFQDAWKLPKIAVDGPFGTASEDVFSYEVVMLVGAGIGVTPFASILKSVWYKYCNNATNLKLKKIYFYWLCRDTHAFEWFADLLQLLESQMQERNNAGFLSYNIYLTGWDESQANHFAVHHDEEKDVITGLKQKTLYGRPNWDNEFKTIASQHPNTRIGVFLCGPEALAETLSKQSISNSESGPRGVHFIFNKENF
- protocolText: compounds shifting NOX2 Amplex Red fluorescence – cell-based, HEK293-NOX2, PMA-stimulated, NOX inhibitor project, primary screen (AID 1159); note: test concentration not given here
- conditionDetails: 45 min, higher = more signal, called active from +8 up or from −8 down
reportedEndpoint: z-score
// print number alone

Recorded results for 4 compounds are shown here.
> print(dat)
                                   compound  assayresult
1  CC1(C)C(=O)C(c2ccccc2)=C2CN3C(=O)N(CCc4ccccc4)C(=O)C3(Cc3ccccc3)C=C21 (stereo not given)       -0.147
2  COc1cc(CO)cc(I)c1O[C@H]1C=C(C(=O)NCCO)C[C@@H](N(CCc2cccc(F)c2)C(=O)CCC2CCCC2)[C@@H]1O         1.47
3  CCOC(=O)C[C@H]1[C@H](OC(=O)c2ccc(C(=O)c3ccccc3)cc2)[C@@H](NC(=O)c2ccc3ccccc3n2)c2cc(OCCCO)ccc2N1C(=O)c1ccc2ccccc2n1      -0.0371
4  CCCCC(=O)N(Cc1ccccc1F)[C@@H]1CC(C(=O)NCCO)=C[C@H](Oc2c(I)cc(CO)cc2OC)[C@H]1O         1.27

Could you now look at the following compound, please?
QUERY: Would you kindly share the measured z-score for C=C(CCCC)C(=O)CC[C@@H](OC(=O)c1ccccc1-c1ccccc1C(=O)O)c1ccc(CO)o1 ?
RESULT: 1.35

----------
Here, each record is paired with measured composite z-score data.
- tgt: Left-right determination factor 2 (Homo sapiens) (UniProt O00292)
- Sequence (O00292 whole entry, looked up): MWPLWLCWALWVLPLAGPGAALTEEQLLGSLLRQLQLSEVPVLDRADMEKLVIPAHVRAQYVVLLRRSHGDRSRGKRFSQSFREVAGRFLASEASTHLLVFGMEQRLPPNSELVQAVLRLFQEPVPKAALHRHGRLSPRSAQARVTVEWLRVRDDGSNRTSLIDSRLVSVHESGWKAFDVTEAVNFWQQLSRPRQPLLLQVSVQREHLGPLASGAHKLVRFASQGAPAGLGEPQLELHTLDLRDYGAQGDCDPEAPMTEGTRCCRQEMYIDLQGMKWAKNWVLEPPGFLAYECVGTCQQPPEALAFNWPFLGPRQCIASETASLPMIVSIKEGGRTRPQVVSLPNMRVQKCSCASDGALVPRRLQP
- protocolText: small molecules binding LEFTY2 protein – biochemical, small-molecule microarray, 635 nm fluorescence scan, primary screen (AID 1110)
- conditionDetails: higher = more signal
// print number alone

> print(dat)
                                  smilesstr   reportedendpoint  assayresult
1  COCCCNC(=O)[C@@]1(Sc2ccc(C)cc2)CC(=O)N(Cc2ccccc2)[C@@H]1c1ccc(CO)cc1  composite z-score       -0.993
2  COC(=O)[C@@]1(Cc2ccc(F)cc2)[C@H]2c3cc(C(=O)N4CCCC4)n(CCc4ccc(OC)c(Br)c4)c3C[C@H]2CN1C(=O)c1ccccc1  composite z-score        0.179
3  C=C[C@H](C)[C@H](OC(=O)Nc1ccc(OC)cc1)c1ccc(O)c2ccccc12  composite z-score       -0.654

Could you now look at the following compound, please?
QUERY: Would you kindly share the measured composite z-score for Cc1ccc(S[C@]2(C(=O)NCCN3CCOCC3)CC(=O)N(C3CCCCC3)[C@@H]2c2ccc(CO)cc2)cc1 ?
RESULT: -0.55

----------
Here, each record is paired with measured z-score data.
- protocolText: compound effects on lung adenocarcinoma cell viability – A549, calcein-AM fluorescence, 48 h, basal, profiling panel (AID 1162); note: test concentration not given here
- conditionDetails: higher = more signal
// print number alone

QUERY: Would you kindly share the measured z-score for C=CCN1Cc2ccccc2C[C@@]2(COC(c3ccc(OCCCO)cc3)=N2)C1=O ?
RESULT: 0.386

----------
- protocolText: probe aNog binding to arrayed compounds – biochemical, biotinylated probe, 635/667 nm fluorescence, primary screen (AID 1115);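 note: probe is biotinylated aNog protein used at 0.15 µg/mL for 1 h at 4 C; z-score combines 667 nm fluorescence of each spot with its signal to noise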
- conditionDetails: small-molecule microarray, higher = more signal
reportedEndpoint: composite z-score
// print number alone

smilesStr	composite z-score
C=CCOC(=O)[C@@H]1[C@H]2C(=O)O[C@H](c3ccccc3)[C@H](c3ccccc3)N2[C@H](c2ccc(OCCOC(=O)[C@H]3C[C@H]4C(=O)N[C@@H](CC(C)C)C(=O)N4[C@H]3c3cccc(OCCO)c3)cc2)[C@@]12C(=O)Nc1ccc(I)cc12	0.0852

Could you now look at the following compound, please?
QUERY: Would you kindly share the measured composite z-score for NC(=O)NCC#Cc1ccc2c(c1)[C@]1(C(=O)N2)[C@H](C(=O)NC[C@H](O)c2ccccc2)[C@H]2C(=O)O[C@H](c3ccccc3)[C@H](c3ccccc3)N2[C@@H]1c1ccccc1OCCO ?
RESULT: 0.665

----------
- tgt: Torsin-1A-interacting protein 1 (Homo sapiens)
- protocolText: compound microarray binding of lysate hLAP1 – cell lysate, small-molecule microarray, COS7 lysate, 635/667 nm fluorescence, primary screen (AID 1116)
- conditionDetails: 635 nm fluorescence, higher = more signal
Entries are grouped by composite z-score into these classes: low = under 0.4, moderate = from 0.4 up to 1, high = 1 and over

Example entries and their recorded answers appear below.
molecule	assignedLabel
COc1ccc(C(O)C2C=CC3C(=O)N(c4ccccc4)C(=O)C3N2Nc2ccccc2)c2ccccc12 (stereo not given)	moderate
CC1(C)C(=O)C(c2ccccc2)=C2CN3C(=O)N(CCc4ccccc4)C(=O)C3(Cc3ccccc3)C=C21 (stereo not given)	low
CC1CC/C=C\[C@H]2OC34C=CCN(CCN5CCOCC5)C(=O)[C@H]3N(CCCCCO)C(=O)[C@@H]4C2C(=O)O1 (stereo not given in full)	low
C=CCNC(=O)[C@H]1[C@@H]2C(=O)O[C@@H](c3ccccc3)[C@@H](c3ccccc3)N2[C@@H](c2ccc(OCCO)cc2)[C@]12C(=O)N(C(=O)OCCOC)c1ccc(C#CC3(O)CCCCCC3)cc12	high

QUERY: Assign a bin to COc1ccccc1CN1C(=O)c2ccccc2[C@](Cc2ccccc2I)(C(=O)NC2CC2)[C@@H]1c1ccc(CO)cc1
RESULT: high

QUERY: Assign a bin to CN1C(=O)C2C=CC(C(O)c3ccccc3)N(NC(=O)OC(C)(C)C)C2C1=O (stereo not given)
RESULT: moderate

QUERY: Assign a bin to CN(C)CCCC[C@@H]1NC(=O)[C@@H]2C[C@H](C(=O)NCCCCCCN)[C@H](c3ccc(O)cc3)N2C1=O
RESULT: high

QUERY: Assign a bin to CCN(CC)c1ccc(N2CC=CC34O[C@@H]5/C=C\CCC(C)OC(=O)C5[C@H]3C(=O)N(CCCCCCO)[C@@H]4C2=O)cc1 (stereo not given in full)
RESULT: moderate

QUERY: Assign a bin to CN(C)CCCCCCNC(=O)[C@@H]1C[C@@H]2C(=O)NCC(=O)N2[C@@H]1c1cccc(OCCO)c1
RESULT: high
